tested on: Nicotinate-nucleotide adenylyltransferase NadD (Staphylococcus aureus N315); assay: inhibitors of S. aureus NadD, primary screen, biochemical, colorimetric, uHTS (AID 602399); settings: purified NadD enzyme, colorimetric absorbance read-out; at 20 µM
Among all 360,000 compounds or so, about 2,800 (0.78%) were called active. Cut-off read from the data, not from the text of the source: active = inhibition above about 26%; inactive = the rest. Only a selection was taken, and actives are over-represented in it overall.
Outcome codes: 1 (yes) (active), 0 (no) (inactive)

COMPOUND: O=C1CC2(CC(c3ccc(Cl)cc3)=NO2)C(=O)N1c1ccccc1 (stereo unspecified)
GROUP: 0 (no)
//
COMPOUND: C=CCOc1cccc(C2C(C(=O)c3ccc(C)o3)=C(O)C(=O)N2CCN2CCOCC2)c1 (stereo unspecified)
GROUP: 0 (no)
//
COMPOUND: CC(C)(C)C(=O)CCN1C(=O)C2(OCCO2)c2ccccc21
GROUP: 0 (no)
//
COMPOUND: CC(=O)N1c2ccc(S(=O)(=O)N3CCC(C(=O)NC4CCCCC4C)CC3)cc2CC1C (stereo unspecified)
GROUP: 0 (no)
//
COMPOUND: Cc1ccc(C(=O)NNc2ncnc3ccccc23)cc1
GROUP: 0 (no)
//
COMPOUND: Cc1ccc(C(=O)NNC(=O)c2cc3cc4ccccc4nc3s2)cc1
GROUP: 1 (yes)
//
COMPOUND: CCC(C(=O)OC)n1cnc2c(oc3ccccc32)c1=O (stereo unspecified)
GROUP: 0 (no)
//
COMPOUND: COc1ccc([N+](=O)[O-])cc1NC(=O)c1ccc(N(Cc2ccccc2C)S(C)(=O)=O)cc1
GROUP: 0 (no)
//
COMPOUND: Cc1ccc(N(CC(=O)NCC2CCCO2)C(=O)CNS(=O)(=O)c2ccc(Cl)cc2)cc1 (stereo unspecified)
GROUP: 0 (no)
//
COMPOUND: CC(=O)C1=C(C)NC2=C(C(=O)CC(C)(C)C2)C1C (stereo unspecified)
GROUP: 0 (no)
//
COMPOUND: CC/C(=N\NC(=O)c1ccccc1Cl)c1ccc(Br)s1
GROUP: 0 (no)
//
COMPOUND: Cn1c2ccccc2c(=O)c2c(=O)n(Cc3ccco3)c(COc3ccccc3)nc21
GROUP: 1 (yes)
//
COMPOUND: COc1ccc(C(C#N)(CC(=O)O)c2cnccn2)cc1OC (stereo unspecified)
GROUP: 0 (no)
//
COMPOUND: Cc1c(C(=O)N(C)CCc2cnn(C)c2)oc2c(F)cccc12
GROUP: 0 (no)
//
COMPOUND: COc1ccc([N+](=O)[O-])cc1NCC(=O)c1ccc(C)cc1
GROUP: 0 (no)
//
COMPOUND: Cc1oc2c(C)c3oc(=O)c(CC(=O)N[C@@H](CC(C)C)C(=O)N[C@@H](Cc4ccccc4)C(=O)O)c(C)c3cc2c1C
GROUP: 1 (yes)
//
COMPOUND: O=C(O)CCN(Cc1ccccc1)S(=O)(=O)c1c(Cl)cccc1Cl
GROUP: 0 (no)
//
COMPOUND: O=C(CSc1nc(C2CC2)nc2ccccc12)Nc1cccc(O)c1
GROUP: 0 (no)
//
COMPOUND: Cc1c(CCC(=O)N[C@@H](CC(C)C)C(=O)O)c(=O)oc2c(C)c3oc4c(c3cc12)CCCC4
GROUP: 0 (no)
//
COMPOUND: Cc1noc(C)c1COC(=O)c1cc2ccccc2cc1O
GROUP: 0 (no)
//
COMPOUND: O=c1[nH]c(CSc2ncc(-c3ccc(F)cc3)n2Cc2ccco2)nc2ccccc12
GROUP: 0 (no)
